target: Parkinson's disease protein 7 (PARK7/DJ1) (human, UniProt Q99497); experiment: primary screen, percent inhibition; higher = more effect of the substance; conditions: 100 µM
Sequence (Q99497 whole entry, looked up): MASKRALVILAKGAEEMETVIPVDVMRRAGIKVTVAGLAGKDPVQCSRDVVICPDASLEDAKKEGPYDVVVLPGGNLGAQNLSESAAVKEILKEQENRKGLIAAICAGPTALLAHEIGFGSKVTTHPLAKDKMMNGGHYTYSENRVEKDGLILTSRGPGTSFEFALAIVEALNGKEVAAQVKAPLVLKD
Hit rate of the full screen: of about 7,900 compounds, about 400 (5.1%) showed an effect of 50% or more. The sample holds strong results, similar compounds and a random draw of the others, so the mix is not that of the screen.
Kind request: treat 8% as inclusive, so Inhibition % at 8% or higher is 1, anything lower is -1.

# Compound, Qualitative label
data = [
    ("C=C(C)c1nc(C#N)c(NCc2ccccc2)o1", 1),
]

Record C=CC(=O)N1CCN(C(=O)c2cccc(Cl)c2)CC1 ; criterion: Inhibition % no lower than 8%. Met?
-1

----------
target: Parkinson's disease protein 7 (PARK7/DJ1) (human, UniProt Q99497); assay: primary screen, percent inhibition; higher = more effect of the substance; conditions: 100 µM
Among all 7,900 compounds or so, about 400 (5.1%) showed an effect of 50% or more. This excerpt belongs to a sample that is enriched for strong results.
Result type: Inhibition % (%)
Give bare numbers, in %.

See these solved cases before continuing.
# Compound, Inhibition % / %
data = [
    ("C=CC(=O)N1CCOCC1c1cccn1C (stereo not drawn)", 7.42),
    ("CC(=O)c1ccccc1NC(=O)CCl", 19),
    ("NC(=O)Nc1ccc(C(=O)CCl)cc1", 89.6),
    ("COc1ccc(CS(=O)(=O)F)cc1[N+](=O)[O-]", 18.4),
    ("O=C(CCl)Nc1cccc(Oc2ccccc2)c1", 55.6),
]

// for each compound below, give its Inhibition %
1. O=C(CCl)Nc1ccc(C(=O)O)cc1
2. CS(=O)(=O)c1ccc(OCCCl)cc1
3. O=C(CCl)c1ccc(NC(=O)c2ccco2)cc1
4. CC(=O)Nc1ccc(C(=O)CCl)cc1
5. O=C(CCl)c1c[nH]c2ccccc12
6. CCN(C(=O)CCl)c1nc2ccccc2s1

[25.9, 4.09, 90.6, 82.5, 37.9, 24.6]

// for each compound below, give its Inhibition %
1. O=C(Nc1ccccc1)c1cccnc1S
2. O=S(=O)(F)c1ccccc1Br
3. C=CC(=O)NCc1nc2c(s1)COCC2
4. CCOC(=O)C1CCN(C(=O)CCl)CC1
5. O=C(CCl)Nc1ccc(Oc2ccccc2Cl)cc1
6. C=CC(=O)NCc1cc2ccccc2s1
7. CCN(CC)C(=O)Oc1ccc(N2CCCC2)cc1
8. COc1ccc(N2CCN(C(=O)CCl)CC2)cc1

1: 3.52; 2: 44.3; 3: 5.36; 4: 19.7; 5: 93.7; 6: 13.3; 7: -3.98; 8: 28.8

----------
target: Parkinson's disease protein 7 (PARK7/DJ1) (human, UniProt Q99497); assay: primary screen, percent inhibition; higher = more effect of the substance; details: 100 µM
Hit rate of the full screen: of about 7,900 compounds, about 400 (5.1%) showed an effect of 50% or more. This is one part of a sample in which strong results are shown more often than they occur.
Result type: Inhibition %

See these solved cases before continuing.
# Compound, Inhibition %
data = [
    ("Cc1cccc(NC(=O)NC2C(=O)OCC2(C)C)n1 (centres unmarked)", "7.98%"),
    ("C=CC(=O)NCC1=CCOCC1", "6.41%"),
    ("Cn1ccc(Nc2ccc(S(=O)(=O)F)cn2)n1", "4.77%"),
    ("CCCc1cc(=O)[nH]c(S)n1", "8.86%"),
    ("C=CC(=O)NCC1(C)OCCc2sccc21 (centres unmarked)", "16.4%"),
    ("Cn1cnc(NS(=O)(=O)c2ccc(S(=O)(=O)F)cc2)n1", "5.05%"),
]

// for each compound below, give its Inhibition %
1. COc1cc(OC)c(C(=O)CCl)c(OC)c1
2. C=CC(=O)Nc1cccc2c1CN(CC(C)C)C2
3. C=CC(=O)N1CCCN(C(=O)c2ccco2)CC1
4. CC1CC(n2cnc3c2c(=O)n(C)c(=O)n3C)C(=O)O1 (centres unmarked)
5. CC(C)c1nc(C(C)Nc2ccc(C#N)nc2)cs1 (centres unmarked)

5.2%
8.44%
1.97%
8.16%
3.63%

----------
target: Parkinson's disease protein 7 (PARK7/DJ1) (human, UniProt Q99497); test: primary screen, percent inhibition; higher = more effect of the substance; conditions: 100 µM
Hit rate of the full screen: of about 7,900 compounds, about 400 (5.1%) showed an effect of 50% or more. What follows is part of a selection rich in strong results, with near analogues and random picks from the rest.
Kind request: treat 30% as inclusive, so Inhibition % at 30% or higher is TRUE, anything lower is FALSE.

Solved cases (5 shown):
# Compound structure string, System under test, Qualitative label
data = [
    ("O=S(=O)(F)c1cccc(Br)c1", "Parkinson's disease protein 7 (PARK7/DJ1) (human, UniProt Q99497)", "FALSE"),
    ("NS(=O)(=O)c1cccc(S(=O)(=O)F)c1", "Parkinson's disease protein 7 (PARK7/DJ1) (human, UniProt Q99497)", "TRUE"),
    ("O=C(O)CN1C(=O)CSC1=O", "Parkinson's disease protein 7 (PARK7/DJ1) (human, UniProt Q99497)", "FALSE"),
    ("N#Cc1cccc(S(=O)(=O)F)c1", "Parkinson's disease protein 7 (PARK7/DJ1) (human, UniProt Q99497)", "TRUE"),
    ("O=S(=O)(F)c1ccc(Cl)cc1", "Parkinson's disease protein 7 (PARK7/DJ1) (human, UniProt Q99497)", "FALSE"),
]

Record O=C(O)CCN1C(=O)CSC1=O ; criterion: Inhibition % no lower than 30%. Met?
FALSE

Record CC1(C)OB(c2cccc(S(N)(=O)=O)c2)OC1(C)C ; criterion: Inhibition % no lower than 30%. Met?
FALSE

Record O=C(CCl)NC(=O)c1cccc([N+](=O)[O-])c1 ; criterion: Inhibition % no lower than 30%. Met?
TRUE

Record O=S(=O)(F)c1ccccc1C(F)(F)F ; criterion: Inhibition % no lower than 30%. Met?
FALSE

----------
target: Parkinson's disease protein 7 (PARK7/DJ1) (human, UniProt Q99497); experiment: primary screen, percent inhibition; higher = more effect of the substance; conditions: 100 µM
In all, about 7,900 compounds went through this assay and about 400 (5.1%) showed an effect of 50% or more. What follows is part of a selection rich in strong results, with near analogues and random picks from the rest.
Hi there, I'd appreciate the recorded Inhibition % for every entry that follows.
Numbers only, in %.

See these solved cases before continuing.
# Compound, Unit descriptor, Inhibition %
data = [
    ("COc1ccc(NC(=O)CCl)cc1", "%", 55.2),
    ("Cc1noc(C)c1CCn1ccnc1C#N", "%", 0.0226),
    ("COc1ccc(NC(=O)NC(=O)CCl)cc1", "%", 1.55),
    ("O=C(CCl)Nc1ccc(Cl)c(C(F)(F)F)c1", "%", 26.2),
]

// for each compound below, give its Inhibition %
1. C=CC(=O)NC1(C)CCC(C)CC1 (stereo not drawn)
2. O=C(CCl)N1CCN(Cc2ccc3c(c2)OCCO3)CC1
3. Cc1csc(C(C#N)=Cc2cccc3c2OCCCO3)n1
4. Cc1cc(I)ccc1NC(=O)CCl
5. C=CC(=O)N1CCC(CS(C)(=O)=O)C1 (stereo not drawn)
6. Cc1cc(C(=O)CCl)c(C)n1-c1ccc2c(c1)OCCO2
7. O=C(CCl)NCCc1ccc2c(c1)OCCO2
8. O=C(CCl)Nc1ncc([N+](=O)[O-])s1

[29.1, 15.8, 1.3, 7.36, 4.28, 63.9, 47.9, 96.3]

// for each compound below, give its Inhibition %
1. Cc1ccc2oc(C#N)nc2c1
2. C=CC(=O)N1CC(Cc2cccc(C)c2)C1
3. O=C(C1CCOCC1)N1CCCC(S(=O)(=O)F)C1 (stereo not drawn)
4. O=C(CCl)Nc1ccc(OC(F)(F)F)cc1
5. O=C(CN1C(=O)CCC1=O)c1ccccc1F

1. 9.34
2. 6.59
3. 8.98
4. 86
5. 9.1

// for each compound below, give its Inhibition %
1. O=C(CCl)Nc1ccc(OC(F)F)c(Cl)c1
2. O=C(C1CCOCC1)N1CCCC(CS(=O)(=O)F)C1 (stereo not drawn)
3. CC1CC1C(=O)N1CCC(S(=O)(=O)F)CC1 (stereo not drawn)
4. COc1ccc(NC(=O)CCCl)cc1

45.8
55.9
72.2
4.56

----------
molecular target: Parkinson's disease protein 7 (PARK7/DJ1) (human); assay: primary screen, percent inhibition; read as competition with a fluorescent probe by fluorescence polarization; higher = more effect of the substance; conditions: 100 µM
Among all 7,900 compounds or so, about 400 (5.1%) showed an effect of 50% or more. The list comes from a sample in which strong results are over-represented; it also holds close analogues and randomly drawn compounds.
Result type: Inhibition % (%)
One number for each entry, in %.

See these solved cases before continuing.
# Compound structure string, Unit descriptor, Endpoint value
measured = [
    ("C=CC(=O)NCc1ccc(CN2CCCCCC2)cc1", "%", 13.2),
    ("COC(=O)c1ccccc1N(C)C(=O)CCl", "%", 6.59),
]

Record summary for CC1(C)OB(C2CNC2)OC1(C)C.O=C(O)C(F)(F)F : reported Inhibition % = 11.6
